experiment.description: Cmax in 129/SvEvBrd x C57BL/6 hybrid mouse at 10 mg/kg
Assay type: ADME, organism-based
Design: dose 10 mg/kg
setup.conditions: in vivo
experimental.endpoint: Cmax (µM)
Answers are plain numbers, in µM.

Returns the measured Cmax for the input compound. Input: Nc1nc(N2CCCCC2)nc2c1c(=O)c(C(=O)NCc1ccc(-n3ccnc3)cc1)cn2CC1CCCO1 (stereo unspecified)
451

====

Test system: Mus musculus
experiment.description: Induction of lymphopenia in 129/SvEvBrd x C57BL/6 hybrid mouse assessed as change in circulating lymphocyte level at 100 mg/kg, po administered as single dose after 18 hrs by complete blood count analysis relative to control
Format: functional
experimental.endpoint: Activity (%)
Answers are plain numbers, in %.

| entry.smiles | experimental.endpoint | test.result |
| --- | --- | --- |
| OC[C@@H](O)[C@@H](O)[C@H](O)c1c[nH]c(-c2ncon2)n1 | Activity | -16 |
| CO[C@H](c1c[nH]c(C(C)=O)n1)[C@H](O)[C@H](O)CO | Activity | 16 |
| OC[C@@H](O)[C@@H](O)[C@H](O)c1c[nH]c(-c2cocn2)n1 | Activity | 1 |
| CC(=O)c1nc([C@@H](O)[C@H](O)[C@H](O)CO)c(-c2ccccc2)[nH]1 | Activity | 40 |

Returns the measured Activity for the input compound. Input: OC[C@@H](O)[C@@H](O)[C@H](O)c1c[nH]c(-c2ncccn2)n1
-26

Data provenance: ChEMBL document CHEMBL1137009
